biological target: human FXR (NR1H4) (Homo sapiens); construct: host or cells: CHO (Chinese hamster ovary) reporter cells; assay: Human FXR (NR1H4) Assay: Gal4 promoter driven luciferase reporter transactivation in CHO cells (Indigo Bioscience kit IB00601); assay type: cell-based; conditions: CHO; read-out: Efficacy (%); on Efficacy (%): efficacy normalized to CDCA set as 100%
Sequence (Q96RI1 whole entry, the tested form may be a part): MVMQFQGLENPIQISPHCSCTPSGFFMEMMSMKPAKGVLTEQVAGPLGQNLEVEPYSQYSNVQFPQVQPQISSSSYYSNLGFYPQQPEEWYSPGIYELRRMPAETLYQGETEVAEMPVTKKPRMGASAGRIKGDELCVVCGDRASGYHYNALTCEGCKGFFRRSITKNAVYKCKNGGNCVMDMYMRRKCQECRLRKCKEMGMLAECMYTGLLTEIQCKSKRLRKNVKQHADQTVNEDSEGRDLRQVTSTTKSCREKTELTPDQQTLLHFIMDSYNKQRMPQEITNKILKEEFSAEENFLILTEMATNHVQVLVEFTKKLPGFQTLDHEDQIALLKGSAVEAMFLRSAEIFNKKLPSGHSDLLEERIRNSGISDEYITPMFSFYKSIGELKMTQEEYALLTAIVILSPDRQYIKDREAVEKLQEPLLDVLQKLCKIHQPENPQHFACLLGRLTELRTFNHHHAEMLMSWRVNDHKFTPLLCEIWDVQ
Give 1 when the value for Emax is at least 90%. Give -1 when it is less.

COMPOUND	ASSAY TARGET	CLASS ASSIGNMENT
COC(=O)c1ccc2cc(N3[C@@H]4CC[C@H]3C[C@@H](NCc3c(-c5c(Cl)cccc5Cl)noc3C3CC3)C4)ccc2c1	human FXR (NR1H4) (Homo sapiens)	1
O=C(O)c1ccc2cc(N3C4CCC3CC(NCc3c(-c5c(Cl)cccc5Cl)noc3C3CC3)C4)ccc2c1 (stereo not shown)	human FXR (NR1H4) (Homo sapiens)	1
O=C(NS(=O)(=O)C1CC1)c1cc(F)c2nc(N3CCC(NCc4c(-c5ccccc5OC(F)(F)F)noc4C4CC4)CC3)sc2c1	human FXR (NR1H4) (Homo sapiens)	-1
Cc1cc2nc(N3C4CCC3CC(NCc3c(-c5c(Cl)cccc5Cl)noc3C3CC3)C4)sc2cc1C(=O)NS(=O)(=O)N1CCCCC1 (stereo not shown)	human FXR (NR1H4) (Homo sapiens)	1
CC(C)Oc1cc(C(=O)O)cc2sc(N3C4CCC3CC(NCc3c(-c5c(F)cccc5F)noc3C3CC3)C4)nc12 (stereo not shown)	human FXR (NR1H4) (Homo sapiens)	-1
CC1(S(=O)(=O)NC(=O)c2ccc3nc(N4C5CCC4CC(NCc4c(-c6ccccc6OC(F)(F)F)noc4C4CC4)C5)sc3c2)CC1 (stereo not shown)	human FXR (NR1H4) (Homo sapiens)	1
O=C(NS(=O)(=O)C1CC1)c1cnc2nc(N3C4CCC3CC(NCc3c(-c5c(Cl)cccc5Cl)noc3C3CC3)C4)sc2n1 (stereo not shown)	human FXR (NR1H4) (Homo sapiens)	-1
COC(=O)c1cc(OC(C)C)c2nc(N3C4CCC3CC(NCc3c(-c5c(F)cccc5F)noc3C3CC3)C4)sc2c1 (stereo not shown)	human FXR (NR1H4) (Homo sapiens)	-1
O=C(O)c1ccc2nc(N3C4CCC3CC(NCc3c(-c5ccccc5C(F)(F)F)noc3C3CC3)C4)oc2c1 (stereo not shown)	human FXR (NR1H4) (Homo sapiens)	1
COC(=O)c1cc(OC(C)C)c2nc(N3CCC(NCc4c(-c5ccccc5OC(F)(F)F)noc4C4CC4)CC3)sc2c1	human FXR (NR1H4) (Homo sapiens)	-1
O=C(NS(=O)(=O)C1CC1)c1ccc2nc(N3C4CCC3CC(NCc3c(-c5c(F)cccc5F)noc3C3CC3)C4)sc2c1 (stereo not shown)	human FXR (NR1H4) (Homo sapiens)	-1

---

biological target: human FXR (NR1H4) (Homo sapiens); assay: Human FXR (NR1H4) Assay: Gal4 promoter driven luciferase reporter transactivation in CHO cells (Indigo Bioscience kit IB00601); conditions: Human FXR (NR1H4) reporter assay, potency ranges
pEC50: −log10 of the molar value.

COMPOUND	pEC50
O=C(O)c1ccc2nc(N3C4CCC3CC(NCc3c(-c5c(F)cccc5F)noc3C3CC3)C4)sc2c1 (centres unmarked)	7.00 to 9.00
CCOc1cc(C(=O)NS(=O)(=O)C2(C)CC2)cc2sc(N3C4CCC3CC(NCc3c(-c5c(Cl)cccc5Cl)noc3C3CC3)C4)nc12 (centres unmarked)	> 9.00
CC(C)Oc1cc(C(=O)O)cc2sc(N3CCC(NCc4c(-c5ccccc5OC(F)(F)F)noc4C4CC4)CC3)nc12	7.00 to 9.00
COc1cc(C(=O)NS(=O)(=O)C2(C)CC2)cc2sc(N3C4CCC3CC(NCc3c(-c5c(Cl)cccc5Cl)noc3C3CC3)C4)nc12 (centres unmarked)	> 9.00
COC(=O)c1cc(C2CC2)c2nc(N3C4CCC3CC(NCc3c(-c5ccccc5C(F)(F)F)noc3C3CC3)C4)sc2c1 (centres unmarked)	7.00 to 9.00
CN(C)S(=O)(=O)NC(=O)c1ccc2nc(N3CCC(NCc4c(-c5c(Cl)cccc5Cl)noc4C4CC4)CC3)sc2c1	7.00 to 9.00
COC(=O)c1cc(F)c2nc(N3CCC(NCc4c(-c5c(Cl)cccc5Cl)noc4C4CC4)CC3)sc2c1	6.00 to 7.00
Cc1cc(C(=O)NS(=O)(=O)C2(C)CC2)cc2sc(N3C4CCC3CC(NCc3c(-c5c(Cl)cccc5Cl)noc3C3CC3)C4)nc12 (centres unmarked)	> 9.00
COc1cc(C(=O)O)cc2sc(N3C4CCC3CC(NCc3c(-c5c(Cl)cccc5Cl)noc3C3CC3)C4)nc12 (centres unmarked)	> 9.00
O=C(NS(=O)(=O)C1CC1)c1ccc2nc(N3C4CCC3CC(NCc3c(-c5c(Cl)cccc5Cl)noc3C3CC3)C4)sc2c1 (centres unmarked)	> 9.00
O=C(O)c1cnc2nc(N3C4CCC3CC(NCc3c(-c5c(Cl)cccc5Cl)noc3C3CC3)C4)sc2n1 (centres unmarked)	7.00 to 9.00
O=C(O)c1cc(C2CC2)c2nc(N3C4CCC3CC(NCc3c(-c5c(F)cccc5F)noc3C3CC3)C4)sc2c1 (centres unmarked)	7.00 to 9.00
O=C(O)c1ccc(N2C3CCC2CC(NCc2c(-c4c(Cl)cccc4Cl)noc2C2CC2)C3)nc1 (centres unmarked)	7.00 to 9.00
O=C(O)c1cc(OC(F)F)c2nc(N3[C@@H]4CC[C@H]3C[C@@H](NCc3c(-c5c(Cl)cccc5Cl)noc3C3CC3)C4)sc2c1	> 9.00

---

This listing pairs compounds with measured Emax.
biological target: human FXR (NR1H4) (Homo sapiens); construct: host or cells: CHO (Chinese hamster ovary) reporter cells; test: Human FXR (NR1H4) Assay: Gal4 promoter driven luciferase reporter transactivation in CHO cells (Indigo Bioscience kit IB00601); format: cell-based; settings: CHO; read-out: Efficacy (%); on Efficacy (%): efficacy normalized to CDCA set as 100%

COMPOUND	ASSAY TARGET	UNITS SYMBOL	Emax
CN(C)S(=O)(=O)NC(=O)c1ccc2nc(N3CCN(Cc4c(-c5c(Cl)cccc5Cl)noc4C4CC4)CC3)sc2c1	human FXR (NR1H4) (Homo sapiens)	%	171
CCOC(=O)c1ccc2nc(N3[C@@H]4CC[C@H]3C[C@@H](N(C)Cc3c(-c5c(Cl)cccc5Cl)noc3C3CC3)C4)sc2c1	human FXR (NR1H4) (Homo sapiens)	%	236
O=C(O)c1ccc(N2C3CCC2CC(NCc2c(-c4c(Cl)cccc4Cl)noc2C2CC2)C3)c(F)c1 (centres unmarked)	human FXR (NR1H4) (Homo sapiens)	%	90
COC(=O)c1ccc2nc(N3C4CCC3CC(NCc3c(-c5c(Cl)cccc5Cl)noc3C3CC3)C4)cnc2c1 (centres unmarked)	human FXR (NR1H4) (Homo sapiens)	%	40
COC(=O)c1cc2sc(N3C4CCC3CC(NCc3c(-c5c(Cl)cccc5Cl)noc3C3CC3)C4)nc2cc1-c1ccccc1 (centres unmarked)	human FXR (NR1H4) (Homo sapiens)	%	76.5
CN(C)S(=O)(=O)NC(=O)c1ccc2nc(N3C4CCC3CC(NCc3c(-c5c(Cl)cccc5Cl)noc3C3CC3)C4)sc2c1 (centres unmarked) [Example 283]	human FXR (NR1H4) (Homo sapiens)	%	246
Cc1cc(C(=O)NS(=O)(=O)C2(C)CC2)cc2sc(N3C4CCC3CC(NCc3c(-c5ccccc5C(F)(F)F)noc3C3CC3)C4)nc12 (centres unmarked)	human FXR (NR1H4) (Homo sapiens)	%	133
O=C(NS(=O)(=O)N1CCCCC1)c1ccc2nc(N3C4CCC3CC(NCc3c(-c5c(Cl)cccc5Cl)noc3C3CC3)C4)sc2c1 (centres unmarked)	human FXR (NR1H4) (Homo sapiens)	%	140
CCOC(=O)c1ccc2nc(N3C4CCC3CC(NCc3c(-c5ccccc5C(F)(F)F)noc3C3CC3)C4)sc2c1 (centres unmarked)	human FXR (NR1H4) (Homo sapiens)	%	75
CC1(S(=O)(=O)NC(=O)c2cc3sc(N4C5CCC4CC(NCc4c(-c6c(Cl)cccc6Cl)noc4C4CC4)C5)nc3cc2F)CC1 (centres unmarked)	human FXR (NR1H4) (Homo sapiens)	%	83.2
O=C(O)c1cc(F)c2nc(N3CCC(NCc4c(-c5c(Cl)cccc5Cl)noc4C4CC4)CC3)sc2c1	human FXR (NR1H4) (Homo sapiens)	%	86.5
O=C(NS(=O)(=O)c1ccccc1)c1ccc2nc(N3C4CCC3CC(NCc3c(-c5c(Cl)cccc5Cl)noc3C3CC3)C4)sc2c1 (centres unmarked)	human FXR (NR1H4) (Homo sapiens)	%	203
CC(C)(C)Oc1ccc(S(=O)(=O)NC(=O)OCc2ccc3nc(N4C5CCC4CC(NCc4c(-c6c(Cl)cccc6Cl)noc4C4CC4)C5)sc3c2)cc1 (centres unmarked)	human FXR (NR1H4) (Homo sapiens)	%	113
CC1(S(=O)(=O)NC(=O)c2cc(F)c3nc(N4CCC(NCc5c(-c6c(Cl)cccc6Cl)noc5C5CC5)CC4)sc3c2)CC1	human FXR (NR1H4) (Homo sapiens)	%	68
O=C(NS(=O)(=O)C1CC1)c1ccc2nc(N3C4CCC3CC(NCc3c(-c5c(Cl)cccc5Cl)noc3C3CC3)C4)sc2c1 (centres unmarked)	human FXR (NR1H4) (Homo sapiens)	%	282
COC(=O)c1cc(C)c2nc(N3C4CCC3CC(NCc3c(-c5c(Cl)cccc5Cl)noc3C3CC3)C4)sc2c1 (centres unmarked)	human FXR (NR1H4) (Homo sapiens)	%	37
CC1(S(=O)(=O)NC(=O)c2cc3sc(N4C5CCC4CC(NCc4c(-c6c(Cl)cccc6Cl)noc4C4CC4)C5)nc3cc2-c2ccccc2)CC1 (centres unmarked)	human FXR (NR1H4) (Homo sapiens)	%	116
COc1cc(C(=O)O)cc2sc(N3C4CCC3CC(NCc3c(-c5c(Cl)cccc5Cl)noc3C3CC3)C4)nc12 (centres unmarked)	human FXR (NR1H4) (Homo sapiens)	%	153
COC(=O)c1cc(F)c2nc(N3C4CCC3CC(NCc3c(-c5c(Cl)cccc5Cl)noc3C3CC3)C4)sc2c1 (centres unmarked)	human FXR (NR1H4) (Homo sapiens)	%	137
COC(=O)c1cc(F)c2nc(N3C4CCC3CC(NCc3c(-c5ccccc5OC(F)(F)F)noc3C3CC3)C4)sc2c1 (centres unmarked)	human FXR (NR1H4) (Homo sapiens)	%	61
CC(C)Oc1cc(C(=O)O)cc2sc(N3C4CCC3CC(NCc3c(-c5ccccc5OC(F)(F)F)noc3C3CC3)C4)nc12 (centres unmarked)	human FXR (NR1H4) (Homo sapiens)	%	121
CC(C)Oc1cc(C(=O)O)cc2sc(N3CCC(NCc4c(-c5c(Cl)cccc5Cl)noc4C4CC4)CC3)nc12	human FXR (NR1H4) (Homo sapiens)	%	106
COc1cc(C(=O)NCCS(=O)(=O)O)cc2sc(N3C4CCC3CC(NCc3c(-c5c(Cl)cccc5Cl)noc3C3CC3)C4)nc12 (centres unmarked)	human FXR (NR1H4) (Homo sapiens)	%	16.5
O=C(NS(=O)(=O)N1CCCC1)c1cc(F)c2nc(N3C4CCC3CC(NCc3c(-c5c(Cl)cccc5Cl)noc3C3CC3)C4)sc2c1 (centres unmarked)	human FXR (NR1H4) (Homo sapiens)	%	210
O=C(O)c1cc(F)c2nc(N3CCC(NCc4c(-c5ccccc5OC(F)(F)F)noc4C4CC4)CC3)sc2c1	human FXR (NR1H4) (Homo sapiens)	%	85.3
CN(c1nc2ccc(C(=O)NS(=O)(=O)N(C)C)cc2s1)C1CCC(OCc2c(-c3c(Cl)cccc3Cl)noc2C2CC2)CC1 (centres unmarked)	human FXR (NR1H4) (Homo sapiens)	%	158
